# procedureText: physchem
# Format: physicochemical
# conditionParameters: pH 7.4
measurementLabel: half-life

Could you share which half-life value was measured for "N[C@@H](CSN=O)C(=O)O" ? ~30 s
